- Tested on: 379773-124-R-J2-PDC spheroid viability;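 note: spheroids exposed to drugs for seven days before readout; percent viability relative to DMSO vehicle control taken as 100%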
- experiment_summary: Anticancer human tumor 379773-124-R-J2-PDC patient-derived endometrial carcinoma cell line growth inhibition [POLQ]
- condition_summary: second compound 10 µM; first compound 3.16 µM; hits give low values; spheroids with HUVEC and MSC
This section presents compounds with their documented viability, T/C values.
Return type: number; implicit unit %.

The following compounds have reported results that may help.
C#Cc1c(F)ccc2cc(O)cc(-c3ncc4c(N5CC6CCC(C5)N6)nc(OCC56CCCN5CC(F)C6)nc4c3F)c12 (stereo not given) + COC1C(OC(N)=O)C(O)C(Oc2ccc3c(O)c(NC(=O)c4ccc(O)c(CC=C(C)C)c4)c(=O)oc3c2C)OC1(C)C :: 75.8
O=C(Nc1ccc(O)c(NS(=O)(=O)c2ccc(F)cc2)c1)c1ccc(-c2ccccc2)cc1 + COC1C(OC(N)=O)C(O)C(Oc2ccc3c(O)c(NC(=O)c4ccc(O)c(CC=C(C)C)c4)c(=O)oc3c2C)OC1(C)C :: 75.3
COc1ccc([C@@H](O)c2cc(-c3ncnc4cc(N5CCOCC5)ccc34)c(F)cc2Cl)nn1 + Cc1cccc(N(C)C(=O)C2C(O)CCN2c2nc(C)cc(C(F)(F)F)c2C#N)c1 :: 82.2
C=CC(=O)N1CCN(c2nc(=O)n(-c3c(C)ccnc3C(C)C)c3nc(-c4c(O)cccc4F)c(F)cc23)C(C)C1 (stereo not given) + Cc1cccc(N(C)C(=O)C2C(O)CCN2c2nc(C)cc(C(F)(F)F)c2C#N)c1 :: 82.8
CCc1cc2c(N3CCc4c(cc(Cn5ccnc5)cc4-c4cn(C)nc4C(F)(F)F)C3=O)ccnc2c(OC)n1 + Cc1cccc(N(C)C(=O)C2C(O)CCN2c2nc(C)cc(C(F)(F)F)c2C#N)c1 :: 50.1
CNCc1ccc(-c2[nH]c3cc(F)cc4c3c2CCNC4=O)cc1 + Nc1ccc(C#CCN(C(=O)Cc2ncc(C(F)(F)F)cc2C(F)(F)F)c2ccc(F)cc2)nn1 :: 96.6
C=CC(=O)N1CCN(c2nc(=O)n(-c3c(C)ccnc3C(C)C)c3nc(-c4c(O)cccc4F)c(F)cc23)C(C)C1 (stereo not given) + COC1C(OC(N)=O)C(O)C(Oc2ccc3c(O)c(NC(=O)c4ccc(O)c(CC=C(C)C)c4)c(=O)oc3c2C)OC1(C)C :: 86
Nc1ccn(C2OC(CO)C(O)C2(F)F)c(=O)n1 (stereo not given) + Nc1ccc(C#CCN(C(=O)Cc2ncc(C(F)(F)F)cc2C(F)(F)F)c2ccc(F)cc2)nn1 :: 10.6
CCc1cc2c(N3CCc4c(cc(Cn5ccnc5)cc4-c4cn(C)nc4C(F)(F)F)C3=O)cc(C)nc2c(OC)n1 + Cc1cccc(N(C)C(=O)C2C(O)CCN2c2nc(C)cc(C(F)(F)F)c2C#N)c1 :: 50.9

Item CC1COCCN1c1cc(C2(S(C)(=N)=O)CC2)nc(-c2ccnc3[nH]ccc23)n1 (stereo not given) + Nc1ccc(C#CCN(C(=O)Cc2ncc(C(F)(F)F)cc2C(F)(F)F)c2ccc(F)cc2)nn1 has what recorded viability, T/C? 43.2
